Target: EGFR on A431 epidermoid carcinoma cells (human, UniProt P00533 25-1210)
Assay: cell-based or functional assay
In this section, each of the binders is paired with its reported ADCC EC50.
Returns: string containing the number followed by the unit.

Use the examples below as a reference point.
ADCC EC50 reported for this binder H1H102N (antibody, human IgG1, V domains shown, Tested in human IgG1 Fc format (H1H); also called H1M102N) VH: QVQLQESGPGLVQPSQTLSLTCTVSGGSVSSGDYYWSWIRQHPGKGLEWIGHIYYSGITYYNPSLESRVTITLDTSKNQFSLNLRSVTAADTAVHYCARTAIIGTMDNWGRGTLVTVSS VL: EIVMTQSPATLSVSPGERATLSCRASQSVSSNLAWYQQKPGQAPRLLIYDASTRATGFPARFSGSGSGTEFTLTISSLQSEDFAVYYCQQYNTWWTFGQGTKVEIK : 4.39e-13 Molar

Value of measured ADCC EC50 for the entry H1H103N (antibody, human IgG1, V domains shown, Tested in human IgG1 Fc format (H1H); also called H1M103N) VH: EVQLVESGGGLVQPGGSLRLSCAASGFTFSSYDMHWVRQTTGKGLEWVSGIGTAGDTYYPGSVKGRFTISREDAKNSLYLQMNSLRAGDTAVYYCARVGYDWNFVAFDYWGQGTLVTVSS VL: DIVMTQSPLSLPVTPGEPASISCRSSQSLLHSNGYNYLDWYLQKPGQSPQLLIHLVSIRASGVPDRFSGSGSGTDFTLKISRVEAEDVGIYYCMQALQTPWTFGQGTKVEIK : 7.25e-13 Molar

Field: next binder
Kindly note the recorded ADCC EC50 for H1H151P (antibody, human IgG1, V domains shown, Human IgG1 Fc (H1H)) VH: QVQLQESGPGLVNPSQTLSLTCTVSGGSINSGDYYWSWVRQHPGKGLEWIGYIYYSGSTYYNPSLKSRVTISVDTSKNQFSLKLSSVTVADTAVYYCARVGYSKGYFDSWGQGTLVTVSS VL: DIQMTQSPSTLSASVGDRVTITCRASESISSWLAWYQQKPGKAPKVLIYDASSLESGVPSRFSGSGSGTEYTLTISSLQPDDFASYYCQQYKSYWTFGQGTKVEIK , which is 5.48e-09 Molar
